Values were extracted from PubChem BioAssay.

Tested on: Neuregulin-1 EGF-like domain
Assay: small molecules binding NRG1 EGF domain – biochemical, small-molecule microarray, 635 nm fluorescence, primary screen (AID 1081);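 note: binding of the protein to compounds printed on small-molecule microarray slides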
Settings: higher = more signal
Measured composite z-score accompanies every entry in the list below.
Respond numerically, and do not add a unit to the figure.

Worked cases, answers included:
NC(=O)[C@@H]1[C@H]2C(=O)O[C@H](c3ccccc3)[C@H](c3ccccc3)N2[C@H](c2ccccc2OCCO)[C@@]12C(=O)Nc1ccc(C#CCCO)cc12 = 0.0434
CCN(CC)c1ccc(N2CC=CC34O[C@@H]5/C=C\CCCOC(=O)C5[C@H]3C(=O)N(CCCCCO)[C@@H]4C2=O)cc1 (some centres undefined) = 0.516
O=C(O)[C@@]1(Cc2ccccc2)COC(c2ccc(OCCCO)cc2)=N1 = 1.2

Q: Note down composite z-score recorded for CCCCC(CC)C(O)C1C=CC2C(=O)NC(=O)C2N1Nc1ccccn1 (centres undefined)
Result: 0.879

Q: Note down composite z-score recorded for CCOC(=O)C[C@H]1[C@H](OC(=O)c2ccc(C(=O)c3ccccc3)cc2)[C@@H](NC(=O)C2CCCCC2)c2cc(OCCCO)ccc2N1C(=O)Cc1ccc(OC)cc1
Result: 0.207

###

Assay: compound effects on hepatocellular carcinoma cell viability – HepG2, calcein-AM fluorescence, 48 h, basal, profiling panel (AID 1164); note: test concentration not given here
Conditions: higher = more signal
measured_endpoint: z-score
Respond numerically, and do not add a unit to the figure.

Worked cases, answers included:
CC(C)N1CC=CC23O[C@@H]4C=CCOC(=O)[C@@H]4[C@H]2C(=O)N(CCCCCCO)[C@@H]3C1=O (some centres undefined) = -0.684
COc1ccc(C#Cc2ccc3c(c2)[C@]2(C(=O)N3)[C@H](C(=O)O)[C@H]3C(=O)O[C@H](c4ccccc4)[C@H](c4ccccc4)N3[C@@H]2c2ccc(OCCO)cc2)cc1 = 1.27

Q: Note down z-score recorded for C[N+](C)(C)CCCCCCNC(=O)[C@@H]1C[C@@H]2C(=O)NCC(=O)N2[C@@H]1c1ccc(O)cc1
Result: 0.517

Q: Note down z-score recorded for COCCOC(=O)N1C(=O)[C@@]2(c3cc(C#CC4(O)CCCCCC4)ccc31)[C@H](C(=O)N1CCc3cc(OC)c(OC)cc3C1)[C@H]1C(=O)O[C@H](c3ccccc3)[C@H](c3ccccc3)N1[C@@H]2c1ccccc1OCCO
Result: 0.898

Q: Note down z-score recorded for CC(C)N1C(=O)c2ccccc2[C@](C)(C(=O)O)[C@@H]1c1ccc(CO)cc1
Result: -0.876

###

Measured z-score accompanies every entry in the list below.
Molecular target: Luciferin 4-monooxygenase (Photinus pyralis) (UniProt P08659)
Sequence (P08659 whole entry, looked up): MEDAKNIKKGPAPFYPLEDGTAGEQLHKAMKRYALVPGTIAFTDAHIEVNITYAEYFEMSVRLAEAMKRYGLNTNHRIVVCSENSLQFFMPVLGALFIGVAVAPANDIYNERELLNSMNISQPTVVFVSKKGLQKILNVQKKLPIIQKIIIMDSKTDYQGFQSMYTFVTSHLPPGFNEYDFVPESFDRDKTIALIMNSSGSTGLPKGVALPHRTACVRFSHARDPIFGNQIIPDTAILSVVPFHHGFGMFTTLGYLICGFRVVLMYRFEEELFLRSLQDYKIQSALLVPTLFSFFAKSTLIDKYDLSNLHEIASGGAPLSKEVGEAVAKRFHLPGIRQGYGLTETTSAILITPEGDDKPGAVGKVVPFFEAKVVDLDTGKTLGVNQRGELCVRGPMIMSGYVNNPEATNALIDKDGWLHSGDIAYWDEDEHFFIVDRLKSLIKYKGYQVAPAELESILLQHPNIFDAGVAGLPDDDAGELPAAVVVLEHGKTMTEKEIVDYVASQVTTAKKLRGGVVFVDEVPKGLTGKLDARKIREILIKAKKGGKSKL
Experiment: inhibition of purified Photinus pyralis luciferase – biochemical, luminescence, purified enzyme, 2006 set, primary screen (AID 1141);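 note: cell-free assay with purified firefly luciferase at 100 ng per well in PBS; test concentration not given here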
Settings: purified firefly luciferase, SteadyGlo luminescence, 30 min; higher = more signal, called active from +8 up or from −8 down
Respond numerically, and do not add a unit to the figure.

O=C1O[C@H](c2ccccc2)[C@H](c2ccccc2)N2[C@H]1[C@@H](C(=O)N1CCCCCCC1)[C@]1(C(=O)Nc3ccc(C#CCCO)cc31)[C@H]2c1ccc(OCCO)cc1 = -0.264
COCCOC(=O)N1C(=O)[C@@]2(c3cc(C#CCNC(N)=O)ccc31)[C@H](c1ccc(OCCO)cc1)N1[C@H](c3ccccc3)[C@H](c3ccccc3)OC(=O)[C@H]1[C@@H]2C(=O)N1CCN(c2ncccn2)CC1 = -1.23
COCCOC(=O)N1C(=O)[C@@]2(c3cc(C#CCCO)ccc31)[C@H](C(=O)NC[C@H](O)c1ccccc1)[C@H]1C(=O)O[C@H](c3ccccc3)[C@H](c3ccccc3)N1[C@@H]2c1ccccc1OCCO = -1.02
O=c1c2ccc(Br)cc2nc(-c2ccccc2)n1Cc1cccc(O)c1 = -0.273

Q: Note down z-score recorded for COc1ccc([Si](C)(C)[C@@H]2[C@@H](CCO)O[C@]3(C(=O)N(Cc4cccc(N5C(=O)COc6ccccc65)c4)c4ccccc43)[C@H]2C)cc1
Result: -0.123

Q: Note down z-score recorded for Cc1cc(C)c(C(O)C2C=CC3C(=O)N(c4ccccc4)C(=O)C3N2Nc2ccc([N+](=O)[O-])cc2)c(C)c1 (stereo unspecified)
Result: 1.12
